test system: MS2 coat protein; test: apparent KD of MS2 coat protein; designed switch direction (-1 OFF switch, 1 ON switch): -1; higher = weaker reporter binding; conditions: input ligand: FMN 200 uM
We begin with a simple list: items and their reported apparent KD of MS2 coat protein.
measurement-kind: apparent KD of MS2 coat protein (nM)

chain_sequence="UACAUGUGAGGAUAUUAGUAGUAAAUAAAUAAAAUUAUUACUGAGAAGGUACAUGAGGAUCACCCAUGUUCCUU [Salish 062 v23] (Eterna round: R97, puzzle: Exclusion 4)" reported_value=17.5
chain_sequence="AGCUGUGGCCGAGGAUAUACACAUGAGGAUCACCCAUGUAGGCGCGGAUACGCGCUAAAAUAAUUGUAGAAGGCGGUCUCAGCA [Eli eng2 - 054] (Eterna round: R96, puzzle: Exclusion NG 2)" reported_value=3.88
chain_sequence="AGCGUGGAGACAGGAUAUGAGAAUAGAUAGAACUCAGAAGGGUCACAUGAGGAUCACCCAUGUAAAGUCUUGAGGCUGAGUGGU [Prohibition 6 - Jieux - Exclusion NG 1] (Eterna round: R96, puzzle: Exclusion NG 1)" reported_value=153
chain_sequence="ACAUGAGGAUCACCCAUGUCCGGCUGGUCUGUUUCGGCUGUCGAGGAUAUAGUUCGGUGUUCGCGCUAGAAGGUGGGAGCUGGC [Aenatbe mod 58] (Eterna round: R96, puzzle: Exclusion NG 3)" reported_value=160
chain_sequence="UUAAAUCAUGUAGGAUAUGCGUGGCGAAGCUAUGCAGAAGGACAUGAGGAUCACCCAUGUCUUUCCGUCUGCGUACAGAUGGAA [JL Eng1 1.08 mod 2] (Eterna round: R96, puzzle: Exclusion NG 1)" reported_value=259
chain_sequence="UCACAGUUAGGAUAUGCGAGUUUGGUGUGCAUCCUAGACAUACAUGAGGAUCACCCAUGUAGAAGGAAUAGUGG [Eternabot (L2) Solution 80] (Eterna round: R97, puzzle: Exclusion 2)" reported_value=34.5
chain_sequence="AUUAAUGUCAAAGGAUAUCAGCACGUUUAGUGCUGAGAAGGUUGAACAUGAGGAUCACCCAUGUAGAUCAUUAAUAAUUUAAUU [ENG1/10-B1] (Eterna round: R96, puzzle: Exclusion NG 1)" reported_value=23.5
chain_sequence="GCAGCUAAUCGAGGAUAUCAGCACGUGUAGUGCUGAGAAGGCGACAUGAGGAUCACCCAUGUGAUCAAUUAAUAUUAAUGCUGC [ENG1/11-A3] (Eterna round: R96, puzzle: Exclusion NG 1)" reported_value=893
chain_sequence="UUGAGACAUGAGGAUCACCCAUGUAAGGAUAUAGUCGUCUGGUGGUCUCGGGUGGUGGCUAGAAGGUGCGUGCG [-15.7, 14.3 kcal, A 20%] (Eterna round: R97, puzzle: Exclusion 1)" reported_value=241

Hey, just so you know, these numbers are from the supplement of paper PMC9170038.
